Measured On: BRM (Homo sapiens, UniProt P51531)
Construct: made in house; host or cells: High Five insect cells
Sequence (P51531 whole entry): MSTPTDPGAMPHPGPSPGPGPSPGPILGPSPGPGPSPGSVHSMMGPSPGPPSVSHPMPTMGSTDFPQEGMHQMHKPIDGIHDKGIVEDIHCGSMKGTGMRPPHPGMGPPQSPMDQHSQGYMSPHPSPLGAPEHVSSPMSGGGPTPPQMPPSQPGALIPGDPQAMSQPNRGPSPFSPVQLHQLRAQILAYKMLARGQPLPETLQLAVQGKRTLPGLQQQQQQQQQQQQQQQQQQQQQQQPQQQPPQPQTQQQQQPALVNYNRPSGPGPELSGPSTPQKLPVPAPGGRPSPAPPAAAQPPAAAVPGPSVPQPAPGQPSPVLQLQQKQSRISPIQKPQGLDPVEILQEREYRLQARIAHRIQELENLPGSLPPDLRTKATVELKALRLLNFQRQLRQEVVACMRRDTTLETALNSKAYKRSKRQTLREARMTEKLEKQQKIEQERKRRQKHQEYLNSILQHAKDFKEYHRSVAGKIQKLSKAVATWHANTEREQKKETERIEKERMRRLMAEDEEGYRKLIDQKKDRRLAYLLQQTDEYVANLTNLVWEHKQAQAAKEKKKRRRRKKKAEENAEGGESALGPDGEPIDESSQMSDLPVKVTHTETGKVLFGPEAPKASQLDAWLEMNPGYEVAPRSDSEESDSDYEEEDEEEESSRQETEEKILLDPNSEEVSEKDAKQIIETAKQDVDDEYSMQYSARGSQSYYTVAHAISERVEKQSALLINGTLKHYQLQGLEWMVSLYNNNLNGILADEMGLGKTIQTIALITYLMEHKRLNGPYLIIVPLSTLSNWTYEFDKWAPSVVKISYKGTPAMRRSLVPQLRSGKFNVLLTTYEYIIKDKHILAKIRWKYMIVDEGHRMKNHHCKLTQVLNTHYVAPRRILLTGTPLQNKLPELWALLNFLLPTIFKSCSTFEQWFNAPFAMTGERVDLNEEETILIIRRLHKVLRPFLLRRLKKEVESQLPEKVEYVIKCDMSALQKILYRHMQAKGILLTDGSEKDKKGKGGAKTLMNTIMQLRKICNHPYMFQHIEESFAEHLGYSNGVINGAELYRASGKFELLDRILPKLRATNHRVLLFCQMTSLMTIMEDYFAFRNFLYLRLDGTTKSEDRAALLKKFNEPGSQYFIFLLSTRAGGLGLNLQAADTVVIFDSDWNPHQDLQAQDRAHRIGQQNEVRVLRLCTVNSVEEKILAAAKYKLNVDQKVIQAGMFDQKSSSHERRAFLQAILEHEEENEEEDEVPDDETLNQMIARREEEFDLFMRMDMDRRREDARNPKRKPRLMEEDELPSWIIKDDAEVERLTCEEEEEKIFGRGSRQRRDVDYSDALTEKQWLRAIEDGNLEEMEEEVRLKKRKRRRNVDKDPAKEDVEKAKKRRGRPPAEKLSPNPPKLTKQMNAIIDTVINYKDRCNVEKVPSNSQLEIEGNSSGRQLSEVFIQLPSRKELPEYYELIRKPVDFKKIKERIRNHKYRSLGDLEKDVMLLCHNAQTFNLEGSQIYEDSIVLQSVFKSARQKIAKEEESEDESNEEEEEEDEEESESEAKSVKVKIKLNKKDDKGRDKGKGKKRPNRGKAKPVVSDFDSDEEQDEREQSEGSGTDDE
Protocol: ATPase catalytic activity of BRM, ADP-Glo in vitro biochemical assay
Measurement Setup: ATPase catalytic activity, 30 nM BRM, 400 μM ATP, read-out: BRM IP50 (μM)*
Give measured IC50 for each item. Keep answers brief.

Input Smiles	IC50
C[C@H]1CCCN(c2cccc(-c3csc(NC(=O)CNC(=O)c4ccn(S(C)(=O)=O)c4)n3)c2)C1	> 0.01 µM
CS(=O)(=O)n1ccc(C(=O)NCC(=O)Nc2nc(-c3cccc(N4CCC(F)CC4)n3)cs2)c1	> 0.01 µM
C[C@@H]1CN(c2cccc(-c3cccc(NC(=O)CNC(=O)c4ccn(S(C)(=O)=O)c4)n3)c2)C[C@H](C)O1	> 0.01 µM

Your task in this section: give IC50 for each listed record.
1. CS(=O)(=O)n1ccc(C(=O)NCC(=O)Nc2nc(-c3cccc(OC[C@@H]4CCOC4)c3)cs2)c1
2. CS(=O)(=O)n1ccc(C(=O)NCC(=O)Nc2nc(-c3cccc(N4CC[C@@H](O)C4)c3)cs2)c1
3. COC(C)(C)Cn1ccc(C(=O)NCC(=O)Nc2nc(-c3cccc(-c4ccn(C)n4)c3)cs2)c1
4. COC[C@H](NC(=O)c1ccn(S(C)(=O)=O)c1)C(=O)Nc1nc(-c2cccc(N3CCO[C@@H](C)C3)c2)cs1

A.
1: > 0.01 µM; 2: < 0.01 µM; 3: > 1 µM; 4: < 0.01 µM

Your task in this section: give IC50 for each listed record.
1. CS(=O)(=O)n1ccc(C(=O)NCC(=O)Nc2nc(-c3cccc(-c4cn(C(F)F)nn4)c3)cs2)c1
2. NCCn1ccc(C(=O)NCC(=O)Nc2nc(-c3cccc(-c4ccncc4)c3)cs2)c1

A.
> 0.01 µM
> 0.1 µM

====

Measured On: BRG-1 (Homo sapiens, UniProt P51532)
Construct: made in house; host or cells: High Five insect cells
Sequence (P51532 whole entry): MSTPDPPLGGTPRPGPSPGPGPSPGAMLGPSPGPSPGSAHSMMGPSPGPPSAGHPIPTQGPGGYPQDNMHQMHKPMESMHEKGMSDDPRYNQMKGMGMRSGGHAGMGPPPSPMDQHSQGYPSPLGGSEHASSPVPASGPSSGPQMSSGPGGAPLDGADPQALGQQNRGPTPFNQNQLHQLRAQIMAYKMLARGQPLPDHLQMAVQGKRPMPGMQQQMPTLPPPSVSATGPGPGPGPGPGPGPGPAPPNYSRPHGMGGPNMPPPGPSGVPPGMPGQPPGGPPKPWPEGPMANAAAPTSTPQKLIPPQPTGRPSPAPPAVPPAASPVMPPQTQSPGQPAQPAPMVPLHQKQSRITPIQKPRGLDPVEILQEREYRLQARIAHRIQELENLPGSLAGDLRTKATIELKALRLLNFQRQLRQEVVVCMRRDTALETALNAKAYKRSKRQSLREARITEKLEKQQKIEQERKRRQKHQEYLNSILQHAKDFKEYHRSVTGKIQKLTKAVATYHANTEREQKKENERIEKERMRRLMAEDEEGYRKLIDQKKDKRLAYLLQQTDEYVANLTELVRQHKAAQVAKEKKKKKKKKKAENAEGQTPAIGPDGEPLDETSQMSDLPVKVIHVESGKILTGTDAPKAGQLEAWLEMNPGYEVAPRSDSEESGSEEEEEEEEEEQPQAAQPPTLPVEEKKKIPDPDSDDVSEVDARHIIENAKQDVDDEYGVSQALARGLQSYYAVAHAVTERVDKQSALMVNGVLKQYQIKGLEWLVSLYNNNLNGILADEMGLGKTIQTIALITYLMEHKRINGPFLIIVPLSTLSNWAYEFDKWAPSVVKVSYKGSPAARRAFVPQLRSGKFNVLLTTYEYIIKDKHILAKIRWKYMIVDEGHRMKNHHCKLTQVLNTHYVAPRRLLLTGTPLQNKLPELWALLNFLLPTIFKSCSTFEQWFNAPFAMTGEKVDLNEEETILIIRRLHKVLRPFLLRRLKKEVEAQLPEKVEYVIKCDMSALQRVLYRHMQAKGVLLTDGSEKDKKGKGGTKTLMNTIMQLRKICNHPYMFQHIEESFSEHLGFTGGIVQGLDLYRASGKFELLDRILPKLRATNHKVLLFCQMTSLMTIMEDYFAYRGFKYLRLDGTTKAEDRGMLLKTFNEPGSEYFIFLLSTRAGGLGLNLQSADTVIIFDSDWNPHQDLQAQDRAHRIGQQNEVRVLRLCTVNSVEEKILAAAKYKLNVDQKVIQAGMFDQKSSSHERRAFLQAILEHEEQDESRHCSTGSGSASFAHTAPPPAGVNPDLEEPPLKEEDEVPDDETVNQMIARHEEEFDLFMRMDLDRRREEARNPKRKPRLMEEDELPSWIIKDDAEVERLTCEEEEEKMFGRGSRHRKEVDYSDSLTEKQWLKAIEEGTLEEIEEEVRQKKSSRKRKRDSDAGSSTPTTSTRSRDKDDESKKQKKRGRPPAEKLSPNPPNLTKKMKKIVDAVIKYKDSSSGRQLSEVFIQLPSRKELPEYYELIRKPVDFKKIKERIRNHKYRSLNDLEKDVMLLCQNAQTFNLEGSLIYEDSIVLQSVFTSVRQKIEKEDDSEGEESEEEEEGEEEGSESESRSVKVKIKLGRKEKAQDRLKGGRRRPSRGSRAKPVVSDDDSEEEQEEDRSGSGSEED
Protocol: ATPase catalytic activity of BRG-1, ADP-Glo in vitro biochemical assay
Measurement Setup: ATPase catalytic activity, 30 nM BRG-1, 400 μM ATP, read-out: BRG1 IP50 (μM)*
Give measured IC50 for each item. Keep answers brief.

Reference set (2 entries):
Input Smiles	IC50
CN1CCCc2ccc(-c3csc(NC(=O)CNC(=O)c4ccn(C(C)(C)C)c4)n3)cc21	> 0.01 µM
CS(=O)(=O)n1ccc(C(=O)NCC(=O)Nc2nc(-c3cccc(N4CCC(F)CC4)n3)cs2)c1	> 0.01 µM

Let's switch to this molecule now.
Q. Annotate the molecule "CS(=O)(=O)n1ccc(C(=O)NCC(=O)Nc2nc(-c3cccc(OC[C@H]4CCOC4)c3)cs2)c1" with its measured IC50.
A. > 0.01 µM

====

Give measured IC50 for each item. Keep answers brief.
Measured On: BRM (Homo sapiens)
Construct: made in house; host or cells: High Five insect cells
Protocol: ATPase catalytic activity of BRM, ADP-Glo in vitro biochemical assay
Measurement Setup: ATPase catalytic activity, 30 nM BRM, 400 μM ATP, read-out: BRM IP50

Your task in this section: give IC50 for each listed record.
1. COC(=O)N1CCC[C@H](c2csc(NC(=O)CNC(=O)c3ccn(S(C)(=O)=O)c3)n2)C1
2. CS(=O)(=O)n1ccc(C(=O)NCC(=O)Nc2nc(-c3ccc4c(c3)CCO4)cs2)c1
3. COC[C@H](NC(=O)c1ccn(S(C)(=O)=O)c1)C(=O)Nc1nc(-c2ccc(F)c(OC)c2)cs1

A.
1. > 100 nM
2. < 10 nM
3. > 10 nM

Your task in this section: give IC50 for each listed record.
1. C[C@@H]1CN(c2cccc(-c3csc(NC(=O)CNC(=O)c4ccn(S(C)(=O)=O)c4)n3)c2)[C@@H](C)CO1
2. Cn1cc2c(n1)CCN(c1cccc(-c3csc(NC(=O)CNC(=O)c4ccn(C(C)(C)C)c4)n3)n1)C2

A.
> 100 nM
> 10 nM

====

Measured On: BRG-1 (Homo sapiens)
Construct: made in house; host or cells: High Five insect cells
Protocol: ATPase catalytic activity of BRG-1, ADP-Glo in vitro biochemical assay
Measurement Setup: ATPase catalytic activity, 30 nM BRG-1, 400 μM ATP, read-out: BRG1 IP50 (μM)*
Readout Type: IC50

Your task in this section: give IC50 for each listed record.
1. CO[C@@H]1CCCN(c2cccc(-c3csc(NC(=O)CNC(=O)c4ccn(S(C)(=O)=O)c4)n3)c2)C1 [Compound 161]
2. COC[C@H](NC(=O)c1ccn(S(C)(=O)=O)c1)C(=O)Nc1nc(-c2cccc(C3=CC(C)(C)OC(C)(C)C3)c2)cs1 [Compound 354]
3. CS(=O)(=O)n1ccc(C(=O)NCC(=O)Nc2nc(-c3cccc(-c4cnn(C(F)F)n4)c3)cs2)c1 [Compound 289]
4. Cc1cccc(-c2csc(NC(=O)CNC(=O)c3ccn(S(C)(=O)=O)c3)n2)c1 [Compound 247]
5. CO[C@@H]1CCN(c2cccc(-c3csc(NC(=O)CNC(=O)c4ccn(S(C)(=O)=O)c4)n3)c2)C1 [Compound 226]

A.
1: > 0.01 µM; 2: > 0.01 µM; 3: > 0.01 µM; 4: > 0.01 µM; 5: > 0.01 µM

====

Measured On: BRM (Homo sapiens, UniProt P51531)
Construct: made in house; host or cells: High Five insect cells
Protocol: ATPase catalytic activity of BRM, ADP-Glo in vitro biochemical assay
Measurement Setup: ATPase catalytic activity, 30 nM BRM, 400 μM ATP, read-out: BRM IP50 (μM)*
Give measured IC50 for each item. Keep answers brief.

Compound	IC50
CN1CCN(c2cccc(-c3csc(NC(=O)CNC(=O)c4ccn(S(C)(=O)=O)c4)n3)c2)CC1=O	> 0.01 µM
CC1(n2ccc(C(=O)NCC(=O)Nc3nc(-c4cccc(N5CCOCC5)n4)cs3)c2)COC1	> 0.01 µM
C[C@]1(O)CCCN(c2cccc(-c3csc(NC(=O)CNC(=O)c4ccn(S(C)(=O)=O)c4)n3)c2)C1	> 0.01 µM
COC[C@H](NC(=O)c1ccn(C(C)(C)C)c1)C(=O)Nc1nc(-c2cccc(-c3ccncn3)c2)cs1	> 0.01 µM
CS(=O)(=O)n1ccc(C(=O)NCC(=O)Nc2nc(-c3cccc(C#N)c3)cs2)c1	> 0.01 µM

Your task in this section: give IC50 for each listed record.
1. CS(=O)(=O)n1ccc(C(=O)NCC(=O)Nc2nc(-c3cccc(N4CCCC5(COC5)C4)c3)cs2)c1
2. CS(=O)(=O)n1ccc(C(=O)NCC(=O)Nc2nc(-c3cccc(CO[C@H]4CC[C@H](O)CC4)c3)cs2)c1
3. C[C@@H]1CN(c2cccc(-c3csc(NC(=O)CNC(=O)c4ccn(C(C)(C)C)n4)n3)n2)C[C@H](C)O1
4. CS(=O)(=O)n1ccc(C(=O)NCC(=O)Nc2nc(-c3cccc(N4CC5(CCCOC5)C4)c3)cs2)c1
5. C[C@H]1CCCN(c2cccc(-c3csc(NC(=O)CNC(=O)c4ccn(S(C)(=O)=O)c4)n3)n2)C1
6. Cn1ccc2ccc(-c3csc(NC(=O)CNC(=O)c4ccn(S(C)(=O)=O)c4)n3)cc2c1=O

A.
> 0.01 µM
> 0.01 µM
> 0.01 µM
> 0.1 µM
> 0.01 µM
< 0.01 µM

Your task in this section: give IC50 for each listed record.
1. CO[C@@H]1CCN(c2cccc(-c3csc(NC(=O)CNC(=O)c4ccn(S(C)(=O)=O)c4)n3)c2)C1
2. CS(=O)(=O)n1ccc(C(=O)NCC(=O)Nc2nc(-c3cccc(N4CCC(C#N)CC4)c3)cs2)c1
3. CS(=O)(=O)n1ccc(C(=O)NCC(=O)Nc2nc(-c3cccc(N4CC5CC4CO5)c3)cs2)c1 (stereo not shown)
4. CC(C)(C)n1ccc(C(=O)NCC(=O)Nc2nc(-c3cccc(N4CC5(COC5)C4)c3)cs2)c1

A.
1: < 0.01 µM; 2: > 0.01 µM; 3: > 0.1 µM; 4: > 0.01 µM

Your task in this section: give IC50 for each listed record.
1. CS(=O)(=O)n1ccc(C(=O)NCC(=O)Nc2nc(-c3cccc(N4CC(O)C4)c3)cs2)c1
2. CC(C)(C)n1ccc(C(=O)NCC(=O)Nc2nc(-c3cccc(C#N)c3)cs2)c1
3. CS(=O)(=O)n1ccc(C(=O)NCC(=O)Nc2nc(-c3cccc(N4CCOCC4)c3)cs2)c1
4. COC1CN(c2cccc(-c3csc(NC(=O)CNC(=O)c4ccn(S(C)(=O)=O)c4)n3)c2)C1

A.
< 0.01 µM
> 0.1 µM
< 0.01 µM
< 0.01 µM

====

Give measured IC50 for each item. Keep answers brief.
Measured On: BRM (Homo sapiens, UniProt P51531)
Construct: made in house; host or cells: High Five insect cells
Protocol: ATPase catalytic activity of BRM, ADP-Glo in vitro biochemical assay
Measurement Setup: ATPase catalytic activity, 30 nM BRM, 400 μM ATP, read-out: BRM IP50 (μM)*

Input Smiles	Result
CC(C)(C#N)n1ccc(C(=O)NCC(=O)Nc2nc(-c3cccc(C#N)c3)cs2)c1	> 0.01 µM
CC(C)(C)n1cc(C(=O)NCC(=O)Nc2nc(-c3cccc(C#N)c3)cs2)cn1	> 1 µM
CS(=O)(=O)n1ccc(C(=O)NCC(=O)Nc2nc(-c3cccc(OCC4COC4)c3)cs2)c1	> 0.01 µM
Cn1nccc1C(=O)NCC(=O)Nc1nc(-c2cccc(C#N)c2)cs1	> 1 µM
Cn1cc(-c2cccc(-c3csc(NC(=O)CNC(=O)c4ccn(C(C)(C)C)c4)n3)c2)cn1	> 0.01 µM

Your task in this section: give IC50 for each listed record.
1. C[C@@H]1C[C@H](COc2cccc(-c3csc(NC(=O)CNC(=O)c4ccn(S(C)(=O)=O)c4)n3)c2)C[C@H](C)O1
2. CO[C@H]1CCN(c2cccc(-c3csc(NC(=O)CNC(=O)c4ccn(S(C)(=O)=O)c4)n3)c2)C1
3. CC(=O)N(C)c1cc(-c2cccc(-c3csc(NC(=O)CNC(=O)c4ccn(S(C)(=O)=O)c4)n3)c2)ccn1
4. CO[C@H]1CCCN(c2cccc(-c3csc(NC(=O)CNC(=O)c4ccn(C(C)(C)C)c4)n3)c2)C1
5. CC1(O)CN(c2cccc(-c3csc(NC(=O)CNC(=O)c4ccn(S(C)(=O)=O)c4)n3)c2)C1
6. CN1CC(OCc2cccc(-c3csc(NC(=O)CNC(=O)c4ccn(C(C)(C)C)c4)n3)c2)C1
7. Cn1ncc(-c2cccc(-c3csc(NC(=O)CNC(=O)c4ccn(C(C)(C)C)c4)n3)n2)n1
8. COC[C@H](NC(=O)c1ccn(S(C)(=O)=O)c1)C(=O)Nc1nc(-c2cccc(N3C[C@@H](C)O[C@@H](C)C3)c2)cs1

A.
1. > 0.1 µM
2. > 0.01 µM
3. < 0.01 µM
4. > 0.01 µM
5. > 0.01 µM
6. > 1 µM
7. > 0.01 µM
8. < 0.01 µM

Your task in this section: give IC50 for each listed record.
1. Cn1ccc(-c2cccc(-c3csc(NC(=O)CNC(=O)c4ccn(C(C)(C)CO)c4)n3)c2)n1
2. Cn1ccc(-c2cccc(-c3csc(NC(=O)CNC(=O)c4ccn(C(C)(C)C)c4)n3)c2)n1

A.
1: > 0.01 µM; 2: > 0.01 µM
